Molecular target: heparan 3-O-sulfotransferase Hs3st1 (Homo sapiens, UniProt O14792)
Sequence (O14792 21-307): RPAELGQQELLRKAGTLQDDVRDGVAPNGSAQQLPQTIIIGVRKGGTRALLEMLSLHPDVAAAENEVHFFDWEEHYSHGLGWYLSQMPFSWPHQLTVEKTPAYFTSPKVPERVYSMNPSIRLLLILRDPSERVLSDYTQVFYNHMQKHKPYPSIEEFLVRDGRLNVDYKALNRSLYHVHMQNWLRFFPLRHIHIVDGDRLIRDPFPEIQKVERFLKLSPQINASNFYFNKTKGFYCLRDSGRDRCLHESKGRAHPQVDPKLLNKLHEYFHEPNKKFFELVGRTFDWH
attribute measured: IC50

Q) State the recorded IC50 for this entry: COc1cc(/C=C(\C#N)C(=O)Nc2ccc(Cl)cc2Cl)cc(Br)c1O [Compound 34]
A) 2000 to 2500 nM

----------
Biological target: Sult1e1 (Homo sapiens, UniProt P49888)
Sequence (P49888 whole entry, species assumed): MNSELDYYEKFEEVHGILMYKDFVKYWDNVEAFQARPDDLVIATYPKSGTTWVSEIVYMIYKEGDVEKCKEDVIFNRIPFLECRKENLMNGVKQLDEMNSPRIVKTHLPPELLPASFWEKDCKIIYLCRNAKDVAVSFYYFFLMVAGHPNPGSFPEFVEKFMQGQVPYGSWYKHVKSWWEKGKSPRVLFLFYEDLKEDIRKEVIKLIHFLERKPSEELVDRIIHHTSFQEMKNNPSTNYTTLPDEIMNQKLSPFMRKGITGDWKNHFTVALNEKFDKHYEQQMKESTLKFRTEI
pIC50: −log10 of the molar value.
attribute measured: pIC50

Q) State the recorded pIC50 for this entry: COc1cc(/C=C(\C#N)C(=O)Nc2ccc(Cl)cc2Cl)cc(Br)c1O [Compound 34]
A) 4.38 to 4.72

----------
Biological target: Chst15 (Homo sapiens)
Experiment: enzyme-coupled fluorescence assay
Assay type: biochemical
Details: Ki, CS-A substrate concentration varied, pseudo first-order PAPS concentration
attribute measured: Ki (nM)
Give the quantity in nM, number only.

Q) State the recorded Ki for this entry: COc1cc(/C=C(\C#N)C(=O)Nc2ccc(Cl)cc2Cl)cc(Br)c1O [Compound 34]
A) 1430

----------
Target: UniProt Q9Y2C2
Sequence (Q9Y2C2 whole entry): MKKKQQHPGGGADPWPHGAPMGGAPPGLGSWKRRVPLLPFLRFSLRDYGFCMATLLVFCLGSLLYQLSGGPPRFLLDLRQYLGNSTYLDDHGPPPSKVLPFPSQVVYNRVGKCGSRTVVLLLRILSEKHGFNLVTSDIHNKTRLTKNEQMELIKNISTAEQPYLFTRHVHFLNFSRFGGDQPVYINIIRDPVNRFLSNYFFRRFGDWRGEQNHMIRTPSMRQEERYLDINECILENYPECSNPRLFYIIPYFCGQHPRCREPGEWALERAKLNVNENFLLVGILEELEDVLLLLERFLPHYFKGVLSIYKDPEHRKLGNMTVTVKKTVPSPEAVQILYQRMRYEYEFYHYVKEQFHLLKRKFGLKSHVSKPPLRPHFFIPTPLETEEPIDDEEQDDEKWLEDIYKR
pIC50: −log10 of the molar value.
attribute measured: pIC50

Q) State the recorded pIC50 for this entry: COc1cc(/C=C(\C#N)C(=O)Nc2ccc(Cl)cc2Cl)cc(Br)c1O
A) 5.60 to 5.70

----------
Target: Chst15 (Homo sapiens, UniProt Q7LFX5)
Sequence (Q7LFX5 whole entry, species assumed): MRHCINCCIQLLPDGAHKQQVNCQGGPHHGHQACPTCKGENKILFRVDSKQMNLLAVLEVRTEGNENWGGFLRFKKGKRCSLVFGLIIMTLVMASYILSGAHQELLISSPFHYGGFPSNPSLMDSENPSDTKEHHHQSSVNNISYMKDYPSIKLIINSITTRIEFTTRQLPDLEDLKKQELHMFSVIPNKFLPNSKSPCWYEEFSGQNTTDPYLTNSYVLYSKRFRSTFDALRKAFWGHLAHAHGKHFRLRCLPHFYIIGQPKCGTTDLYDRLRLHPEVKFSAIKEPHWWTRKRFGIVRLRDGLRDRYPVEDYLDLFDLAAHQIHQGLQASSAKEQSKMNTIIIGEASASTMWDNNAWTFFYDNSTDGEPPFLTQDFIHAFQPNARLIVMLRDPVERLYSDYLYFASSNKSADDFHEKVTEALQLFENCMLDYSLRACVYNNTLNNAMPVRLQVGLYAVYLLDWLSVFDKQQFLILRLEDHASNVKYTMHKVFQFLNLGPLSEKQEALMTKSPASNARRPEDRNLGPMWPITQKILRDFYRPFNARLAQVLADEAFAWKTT
Experiment: enzyme-coupled fluorescence assay
Type: biochemical
Settings: Ki, PAPS concentration varied, fixed CS-A acceptor substrate (10 mM)
attribute measured: Ki (nM)
Give the quantity in nM, number only.

Q) State the recorded Ki for this entry: COc1cc(/C=C(\C#N)C(=O)Nc2ccc(Cl)cc2Cl)cc(Br)c1O [Compound 34]
A) 770

----------
Target: Sult2b1b (Homo sapiens, UniProt O00204)
Sequence (O00204 whole entry, species assumed): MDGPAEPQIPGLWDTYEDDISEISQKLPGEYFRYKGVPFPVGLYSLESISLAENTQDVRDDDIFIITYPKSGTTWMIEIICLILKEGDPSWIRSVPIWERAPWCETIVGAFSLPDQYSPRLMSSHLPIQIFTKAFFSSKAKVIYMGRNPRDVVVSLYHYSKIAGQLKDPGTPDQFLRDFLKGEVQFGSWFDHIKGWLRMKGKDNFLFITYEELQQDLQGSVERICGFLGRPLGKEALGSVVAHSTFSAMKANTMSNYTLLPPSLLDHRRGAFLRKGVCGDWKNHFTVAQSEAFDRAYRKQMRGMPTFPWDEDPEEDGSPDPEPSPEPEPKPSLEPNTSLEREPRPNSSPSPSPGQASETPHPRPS
attribute measured: IC50

Q) State the recorded IC50 for this entry: COc1cc(/C=C(\C#N)C(=O)Nc2ccc(Cl)cc2Cl)cc(Br)c1O [Compound 34]
A) 19 to 42 µM
